- SYSTEM: Arginase-1 (Homo sapiens)
- Sequence (P05089 whole entry): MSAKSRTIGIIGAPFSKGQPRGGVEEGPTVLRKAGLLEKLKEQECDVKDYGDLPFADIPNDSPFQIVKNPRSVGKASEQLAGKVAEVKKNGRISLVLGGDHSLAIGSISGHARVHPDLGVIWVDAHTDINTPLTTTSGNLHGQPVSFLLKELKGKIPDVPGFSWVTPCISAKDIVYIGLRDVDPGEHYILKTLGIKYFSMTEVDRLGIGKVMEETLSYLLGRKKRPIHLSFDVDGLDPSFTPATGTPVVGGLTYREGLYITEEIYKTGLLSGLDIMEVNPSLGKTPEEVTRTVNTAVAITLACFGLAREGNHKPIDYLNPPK
- PROTOCOL_TEXT: Binding affinity to human arginase 1 using L-arginine as substrate by surface plasmon resonance assay
Kindly state Kd for each of the entries shown.
Output spec: scalar in µM, unitless text.

Query CC(N)(CCCCB(O)O)C(=O)O (racemic) yields Kd of 0.88

Sample N[C@@H](CCCCB(O)O)C(=O)O ; Kd observed: 0.018

Consider NC(CCCCB(O)O)(C(=O)O)C(F)F (racemic) . Its measured Kd is 34

---

- SYSTEM: Arginase (Plasmodium falciparum, UniProt Q8I384)
- Sequence (Q8I384 whole entry): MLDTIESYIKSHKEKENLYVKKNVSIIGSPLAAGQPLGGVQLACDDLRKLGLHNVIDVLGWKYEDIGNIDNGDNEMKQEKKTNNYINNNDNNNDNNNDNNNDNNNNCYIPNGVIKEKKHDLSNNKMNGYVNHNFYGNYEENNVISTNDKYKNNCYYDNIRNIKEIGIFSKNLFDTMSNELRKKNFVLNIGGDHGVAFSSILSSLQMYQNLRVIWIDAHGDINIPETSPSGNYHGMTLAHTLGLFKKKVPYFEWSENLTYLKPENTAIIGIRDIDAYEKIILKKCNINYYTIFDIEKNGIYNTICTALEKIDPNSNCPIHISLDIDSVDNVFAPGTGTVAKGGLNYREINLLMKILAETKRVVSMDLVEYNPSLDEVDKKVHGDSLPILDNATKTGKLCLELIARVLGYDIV
PROPERTY: pKd
API: returns pKd as number; meaning -log10 of concentration in mol/L.

For this compound ( N[C@@H](CCCCB(O)O)C(=O)O ), measured pKd is 4.96

---

- SYSTEM: Arginase-1 (Homo sapiens, UniProt P05089)
- PROTOCOL_TEXT: Binding affinity to human arginase 1
PROPERTY: Kd (nM)
Number only, in nM; omit the unit.

Reported Arginase-1 (Homo sapiens, UniProt P05089) Kd for item N[C@@H](CCCCB(O)O)C(=O)O was 5
